Biological target: T1, mouse programmed cell death protein 1 Fc fusion protein (mPD-1-Fc), mPD-1 C60S (aa 25-167) (Mus musculus, UniProt Q02242, stabilised)
T1 construct: not cleaved; source: Expi293F, purified (Protein A, SEC; dimeric fraction); not shown: Fc (human), C-terminal, kept
Test: SPR; Carterra LSA; Fab from the ammonium sulfate precipitate of the culture supernatant immobilised on a NiHC200M chip; hPD-1 (1-1024 nM) or mPD-1-Fc (4-1024 nM) as analyte, fourfold dilution series, no regeneration; HBS-EP pH 7.4, 25 °C; medians over the spots of a construct, KD = koff/kon
Conditions: one partner purified
property: koff (s⁻¹)
Express your answer in s⁻¹, writing the number without its unit.

Could you tell me which koff is on file for toripalimab Fab H.E54A (Fab, V domains shown, heavy chain of Sm3 with this change; numbers count from the chain's first residue; as the light chain of Sm3; source: Brevibacillus, culture supernatant (ammonium sulfate precipitate); not shown: 6xHis, C-terminal, kept; 6xHN, C-terminal, kept) VH: QGQLVQSGAEVKKPGASVKVSCKASGYTFTDYEMHWVRQAPIHGLEWIGVIESATGGTAYNQKFKGRVTITADKSTSTAYMELSSLRSEDTAVYYCAREGITTVATTYYWYFDVWGQGTTVTVSS VL: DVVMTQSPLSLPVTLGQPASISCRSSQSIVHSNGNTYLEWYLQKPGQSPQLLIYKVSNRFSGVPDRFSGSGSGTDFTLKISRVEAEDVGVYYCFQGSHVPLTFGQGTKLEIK ?
0.00772
